Tested on: Trichoderma virens ATCC 9645
experiment: growth yield (OD600) relative to untreated control; higher = less growth inhibition
condition.label: compound concentration: 100 uM; 40 h
The whole screen tested about 1,300 compounds, of which about 75 (6%) showed an effect of 50% or more. The full list was thinned out, with strong results kept by preference.
parameter.measured: growth yield (%)
Write down the numeric answer in % and omit the unit.

Query: Bench note: what growth yield did `Cc1cc(C2CCCCC2)n(O)c(=O)c1` show?
Result: 1.27

Proceeding to the next compound to report its growth yield.
Query: Bench note: what growth yield did `CN(c1nccc(=O)[nH]1)C1CCN(c2nc3ccccc3n2Cc2ccc(F)cc2)CC1` show?
Result: 94.5
